Source: paper PMC10975593

- Tested on: NCI-H23
- Method Summary: NCI 60-cell line screen
- Type: cell-based, human
- Assay Context: Homo sapiens, NCI-H23
Listed here: items and their measured IC50.

>  <Molecule>
O=C(CN1CCN(CC(=O)Nc2nc3ccccc3s2)CC1)Nc1ccc([N+](=O)[O-])cc1 [OMS14]

>  <IC50, nM>
3200

$$$$
>  <Molecule>
O=C(CNc1ccc([N+](=O)[O-])cc1)Nc1nc2ccccc2s1 [OMS5]

>  <IC50, nM>
2100

$$$$

###

- Tested on: PC-3
- Method Summary: NCI 60-cell line screen
- Format: cell-based, human
- Assay Context: Homo sapiens, PC-3
pIC50: −log10 of the molar value.

>  <Smiles Data>
O=C(CN1CCN(CC(=O)Nc2nc3ccccc3s2)CC1)Nc1ccc([N+](=O)[O-])cc1

>  <pIC50>
5.36

$$$$
>  <Smiles Data>
O=C(CNc1ccc([N+](=O)[O-])cc1)Nc1nc2ccccc2s1

>  <pIC50>
5.55

$$$$

###

- Tested on: COLO 205
- Method Summary: NCI 60-cell line screen
- Format: cell-based, human
- Assay Context: Homo sapiens, COLO 205
pIC50: −log10 of the molar value.

>  <Molecule>
O=C(CN1CCN(CC(=O)Nc2nc3ccccc3s2)CC1)Nc1ccc([N+](=O)[O-])cc1 [OMS14]

>  <pIC50>
5.77

$$$$
>  <Molecule>
O=C(CNc1ccc([N+](=O)[O-])cc1)Nc1nc2ccccc2s1 [OMS5]

>  <pIC50>
6.15

$$$$

###

- Tested on: A498
- Method Summary: NCI 60-cell line screen
- Type: cell-based, human
- Assay Context: Homo sapiens, A498
pIC50: −log10 of the molar value.

>  <Smiles Data>
O=C(CN1CCN(CC(=O)Nc2nc3ccccc3s2)CC1)Nc1ccc([N+](=O)[O-])cc1

>  <pIC50>
5.42

$$$$
>  <Smiles Data>
O=C(CNc1ccc([N+](=O)[O-])cc1)Nc1nc2ccccc2s1

>  <pIC50>
5.14

$$$$

###

- Test system: MCF-7 cancer cell line
- Method Summary: MTT assay
- Format: cell-based
- Assay Context: Homo sapiens, MCF7, 72 h
Listed here: items and their measured IC50.

>  <Compound>
O=C(CN1CCN(CC(=O)Nc2nc3ccccc3s2)CC1)Nc1ccc([N+](=O)[O-])cc1 [OMS14]

>  <IC50, µM>
22.1

$$$$
>  <Compound>
CN(C)C1CCN(C(=O)c2ccc(NC(=O)Nc3ccc(-c4nc(N5CCOCC5)nc(N5CCOCC5)n4)cc3)cc2)CC1 [Gedatolisib, reference compound]

>  <IC50, µM>
13.1

$$$$

###

Listed here: items and their measured pIC50.
- Tested on: CAKI-1
- Method Summary: NCI 60-cell line screen
- Assay type: cell-based, human
- Assay Context: Homo sapiens, CAKI-1
pIC50: −log10 of the molar value.

>  <Smiles Data>
O=C(CN1CCN(CC(=O)Nc2nc3ccccc3s2)CC1)Nc1ccc([N+](=O)[O-])cc1

>  <pIC50>
5.70

$$$$
>  <Smiles Data>
O=C(CNc1ccc([N+](=O)[O-])cc1)Nc1nc2ccccc2s1

>  <pIC50>
6.05

$$$$

###

- System: OVCAR-3
- Method Summary: NCI 60-cell line screen
- Assay type: cell-based, human
- Assay Context: Homo sapiens, OVCAR-3
pIC50: −log10 of the molar value.

>  <Molecule>
O=C(CNc1ccc([N+](=O)[O-])cc1)Nc1nc2ccccc2s1 [OMS5]

>  <System Name>
OVCAR-3

>  <pIC50>
5.40

$$$$
>  <Molecule>
O=C(CN1CCN(CC(=O)Nc2nc3ccccc3s2)CC1)Nc1ccc([N+](=O)[O-])cc1 [OMS14]

>  <System Name>
OVCAR-3

>  <pIC50>
5.37

$$$$

###

- System Name: PI3Kγ enzyme (Homo sapiens, UniProt P48736)
- Sequence (P48736 whole entry): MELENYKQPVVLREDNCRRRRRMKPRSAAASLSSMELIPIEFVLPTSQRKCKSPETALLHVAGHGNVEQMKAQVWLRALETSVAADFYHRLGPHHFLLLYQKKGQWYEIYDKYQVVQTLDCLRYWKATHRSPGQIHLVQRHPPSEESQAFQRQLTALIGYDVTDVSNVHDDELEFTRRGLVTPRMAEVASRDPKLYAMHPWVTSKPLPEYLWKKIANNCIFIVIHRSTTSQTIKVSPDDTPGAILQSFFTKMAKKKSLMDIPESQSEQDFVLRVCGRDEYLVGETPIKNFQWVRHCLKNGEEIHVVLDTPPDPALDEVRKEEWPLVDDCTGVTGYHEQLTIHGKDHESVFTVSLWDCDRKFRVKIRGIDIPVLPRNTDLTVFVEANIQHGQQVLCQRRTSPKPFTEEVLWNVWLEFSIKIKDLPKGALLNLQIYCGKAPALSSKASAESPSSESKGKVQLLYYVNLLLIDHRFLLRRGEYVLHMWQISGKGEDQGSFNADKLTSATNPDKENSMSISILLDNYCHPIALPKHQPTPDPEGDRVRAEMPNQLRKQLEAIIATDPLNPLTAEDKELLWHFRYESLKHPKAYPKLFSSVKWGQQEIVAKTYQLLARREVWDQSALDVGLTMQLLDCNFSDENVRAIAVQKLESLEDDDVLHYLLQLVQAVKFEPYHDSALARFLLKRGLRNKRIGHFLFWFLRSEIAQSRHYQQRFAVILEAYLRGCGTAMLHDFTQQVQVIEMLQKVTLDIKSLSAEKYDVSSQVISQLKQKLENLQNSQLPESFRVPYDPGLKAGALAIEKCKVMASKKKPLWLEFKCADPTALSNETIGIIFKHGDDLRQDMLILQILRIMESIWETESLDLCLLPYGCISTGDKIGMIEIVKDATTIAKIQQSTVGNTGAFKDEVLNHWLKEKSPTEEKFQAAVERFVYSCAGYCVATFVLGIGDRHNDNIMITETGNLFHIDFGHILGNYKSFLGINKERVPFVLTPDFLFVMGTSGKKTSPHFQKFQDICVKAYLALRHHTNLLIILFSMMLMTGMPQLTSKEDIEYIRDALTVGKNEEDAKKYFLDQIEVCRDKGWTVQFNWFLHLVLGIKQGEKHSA
- Method Summary: Adapta universal kinase assay, anti-PI3Kγ activity
- Type: biochemical
- Assay Context: read-out: % of inhibition (mean) against PI3Kγ enzyme
Listed here: items and their measured inhibition at 100 µM.
Quantity Name: inhibition at 100 µM (%)

>  <Compound>
O=C(CN1CCN(c2ccccc2O)CC1)Nc1nc2ccccc2s1 [OMS12]

>  <Quantity Name>
inhibition at 100 µM

>  <Reading>
16

$$$$
>  <Compound>
O=C(CN1CCOCC1)Nc1nc2ccccc2s1 [OMS9]

>  <Quantity Name>
inhibition at 100 µM

>  <Reading>
2

$$$$
>  <Compound>
O=C(CNC1CCCCC1)Nc1nc2ccccc2s1 [OMS1]

>  <Quantity Name>
inhibition at 100 µM

>  <Reading>
47

$$$$
>  <Compound>
O=C(CNc1ccc(I)cc1)Nc1nc2ccccc2s1 [OMS4]

>  <Quantity Name>
inhibition at 100 µM

>  <Reading>
0

$$$$
>  <Compound>
O=C(CNc1ccc([N+](=O)[O-])cc1)Nc1nc2ccccc2s1 [OMS5]

>  <Quantity Name>
inhibition at 100 µM

>  <Reading>
0

$$$$
>  <Compound>
O=C(CNc1ccc(F)cc1)Nc1nc2ccccc2s1 [OMS3]

>  <Quantity Name>
inhibition at 100 µM

>  <Reading>
24

$$$$
>  <Compound>
O=C(CN1CCN(CC(=O)Nc2nc3ccccc3s2)CC1)Nc1nc2ccccc2s1 [OMS16]

>  <Quantity Name>
inhibition at 100 µM

>  <Reading>
1

$$$$
>  <Compound>
O=C(CN1CCN(c2ccc([N+](=O)[O-])cc2)CC1)Nc1nc2ccccc2s1 [OMS11]

>  <Quantity Name>
inhibition at 100 µM

>  <Reading>
3

$$$$
>  <Compound>
O=C(CN1CCN(c2ccccn2)CC1)Nc1nc2ccccc2s1 [OMS13]

>  <Quantity Name>
inhibition at 100 µM

>  <Reading>
3

$$$$
>  <Compound>
O=C(CN1CCN(CC(=O)Nc2nc3ccccc3s2)CC1)Nc1ccc([N+](=O)[O-])cc1 [OMS14]

>  <Quantity Name>
inhibition at 100 µM

>  <Reading>
19

$$$$

###

- Test system: A549 cancer cell line
- Method Summary: MTT assay
- Format: cell-based
- Assay Context: Homo sapiens, A549, 72 h, read-out: experimental % of inhibition on A549 cancer cell line
If the reported inhibition at 100 µM equals or exceeds 40%, assign Satisfied. If not, assign Not satisfied.

>  <Compound>
O=C(CNC1CCCCC1)Nc1nc2ccccc2s1

>  <Qualitative Label>
Not satisfied

$$$$
>  <Compound>
O=C(CNc1ccc([N+](=O)[O-])cc1)Nc1nc2ccccc2s1

>  <Qualitative Label>
Satisfied

$$$$
>  <Compound>
O=C(CN1CCN(CC(=O)Nc2nc3ccccc3s2)CC1)Nc1nc2ccccc2s1

>  <Qualitative Label>
Satisfied

$$$$
>  <Compound>
O=C(CNc1ccc(I)cc1)Nc1nc2ccccc2s1

>  <Qualitative Label>
Not satisfied

$$$$
>  <Compound>
O=C(CN1CCN(c2cccc(O)c2)CC1)Nc1nc2ccccc2s1

>  <Qualitative Label>
Not satisfied

$$$$
>  <Compound>
O=C(CN1CCOCC1)Nc1nc2ccccc2s1

>  <Qualitative Label>
Not satisfied

$$$$
>  <Compound>
O=C(CN1CCN(c2ccccc2O)CC1)Nc1nc2ccccc2s1

>  <Qualitative Label>
Satisfied

$$$$
>  <Compound>
COc1cccc2c1C(=O)c1c(O)c3c(c(O)c1C2=O)C[C@@](O)(C(=O)CO)C[C@@H]3O[C@H]1C[C@H](N)[C@H](O)[C@H](C)O1 [Doxorubicin, reference compound]

>  <Qualitative Label>
Satisfied

$$$$
>  <Compound>
O=C(CN1CCN(CC(=O)Nc2nc3ccccc3s2)CC1)Nc1ccc([N+](=O)[O-])cc1

>  <Qualitative Label>
Satisfied

$$$$
>  <Compound>
O=C(CN1CCN(c2ccc([N+](=O)[O-])cc2)CC1)Nc1nc2ccccc2s1

>  <Qualitative Label>
Not satisfied

$$$$
>  <Compound>
O=C(CN1CCN(c2ccccn2)CC1)Nc1nc2ccccc2s1

>  <Qualitative Label>
Not satisfied

$$$$
>  <Compound>
N=C(N)NS(=O)(=O)c1ccc(NCC(=O)Nc2nc3ccccc3s2)cc1

>  <Qualitative Label>
Not satisfied

$$$$
>  <Compound>
O=C(CNc1ccc(S(=O)(=O)Nc2ccccn2)cc1)Nc1nc2ccccc2s1

>  <Qualitative Label>
Not satisfied

$$$$
>  <Compound>
O=C(CNc1ccc(F)cc1)Nc1nc2ccccc2s1

>  <Qualitative Label>
Not satisfied

$$$$

###

- Test system: OVCAR-4
- Method Summary: NCI 60-cell line screen
- Format: cell-based, human
- Assay Context: Homo sapiens, OVCAR-4
Listed here: items and their measured IC50.
Quantity Name: IC50 (µM)

>  <Molecule>
O=C(CNc1ccc([N+](=O)[O-])cc1)Nc1nc2ccccc2s1 [OMS5]

>  <Reading>
3

$$$$
>  <Molecule>
O=C(CN1CCN(CC(=O)Nc2nc3ccccc3s2)CC1)Nc1ccc([N+](=O)[O-])cc1 [OMS14]

>  <Reading>
5.2

$$$$
